Test system: Escherichia coli
Quantity kind: MIC

Worked cases, MIC given:
Compound	MIC
CC(=O)OCC1=C(C(=O)O)N2C(=O)C(NC(=O)C(O)c3ccc(N=C4SCCS4)cc3)C2SC1 (stereo not shown)	200 µg/mL
CC1=C(C(=O)O)N2C(=O)C(NC(=O)C(N)c3ccc(N=C4SCCS4)cc3)C2SC1 (stereo not shown)	> 100 µg/mL
CC1=C(C(=O)O)N2C(=O)C(NC(=O)C(N=C3SCCS3)c3ccccc3)C2SC1 (stereo not shown)	> 100 µg/mL

Read the next record carefully.
(Q) // fetch MIC; item: CC(=O)OCC1=C(C(=O)O)N2C(=O)C(NC(=O)CN=C3SCCS3)C2SC1 (stereo not shown) ; system: Escherichia coli
(A) 50 µg/mL
